# target system: Serine/threonine-protein kinase PLK4 (Homo sapiens, UniProt O00444); note: in the data inactive means no Kd found up to 30 µM
# Sequence (O00444 whole entry): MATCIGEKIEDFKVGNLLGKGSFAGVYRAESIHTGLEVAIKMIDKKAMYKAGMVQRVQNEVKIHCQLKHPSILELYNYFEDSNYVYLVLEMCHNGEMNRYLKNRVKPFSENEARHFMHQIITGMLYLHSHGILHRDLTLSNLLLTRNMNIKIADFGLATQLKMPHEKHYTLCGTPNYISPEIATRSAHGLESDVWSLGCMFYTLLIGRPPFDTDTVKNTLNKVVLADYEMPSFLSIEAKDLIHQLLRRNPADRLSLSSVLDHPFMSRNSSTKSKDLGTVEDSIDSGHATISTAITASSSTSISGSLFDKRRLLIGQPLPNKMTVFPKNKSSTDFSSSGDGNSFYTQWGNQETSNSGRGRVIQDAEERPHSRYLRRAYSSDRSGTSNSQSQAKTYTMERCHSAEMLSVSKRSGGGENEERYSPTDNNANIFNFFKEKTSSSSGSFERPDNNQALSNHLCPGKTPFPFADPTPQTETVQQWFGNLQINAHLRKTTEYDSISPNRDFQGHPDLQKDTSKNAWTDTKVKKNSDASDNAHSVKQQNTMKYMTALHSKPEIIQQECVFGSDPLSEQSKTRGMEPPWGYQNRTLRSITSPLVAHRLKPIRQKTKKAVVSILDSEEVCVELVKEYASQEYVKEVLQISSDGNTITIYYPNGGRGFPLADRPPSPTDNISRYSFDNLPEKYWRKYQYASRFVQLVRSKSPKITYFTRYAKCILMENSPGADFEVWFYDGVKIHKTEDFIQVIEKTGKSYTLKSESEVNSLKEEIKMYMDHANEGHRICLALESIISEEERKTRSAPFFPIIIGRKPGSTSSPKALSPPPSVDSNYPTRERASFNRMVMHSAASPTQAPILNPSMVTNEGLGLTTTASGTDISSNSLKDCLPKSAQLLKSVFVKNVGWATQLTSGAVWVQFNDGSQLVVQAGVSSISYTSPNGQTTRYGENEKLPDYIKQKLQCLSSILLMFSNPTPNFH
The source made the active and inactive calls.
I would appreciate it if you answered using one of these outcomes: active, inactive

Study these solved cases before continuing.
COc1cc2nccc(Oc3ccc(NC(=O)C4(C(=O)Nc5ccc(F)cc5)CC4)cc3)c2cc1OC [CABOZANTINIB]	inactive
COc1cccc2cc(-c3nc([C@H]4CC[C@H](C(=O)O)CC4)n4ncnc(N)c34)[nH]c12	inactive
O=S(=O)(c1cccc2c(O)nccc12)N1CCCNCC1 [HYDROXYFASUDIL]	inactive
S=C(NCc1ccc2c(c1)OCO2)N1CCN(c2ncnc3c2oc2ccccc23)CC1	inactive
O=C(Nc1ccc(OC(F)(F)F)cc1)c1sccc1NCc1ccnc2ccccc12	inactive

IN: Test call for this compound, please: `Cc1cc(C(=O)Nc2cc(Oc3ccc4nc(NC(=O)C5CC5)cn4n3)ccc2C)n(C)n1`
OUT: inactive

IN: Assay result, entry `COc1cc2ncnc(Nc3ccc(O)cc3)c2cc1OC` — outcome?
OUT: inactive

IN: Hello, I am checking results. What call was entered for `CNC(=O)c1cc(COc2nnc(Nc3ccc(Cl)cc3)c3ccoc23)ccn1` ?
OUT: inactive

IN: # lookup: test call for `COc1cc(F)c(F)c(Nc2ccc(I)cc2F)c1NS(=O)(=O)C1(C[C@H](O)CO)CC1`
OUT: inactive

IN: Hi team, can someone confirm the assay call for `C=CC(=O)Nc1cccc(Nc2nc(Nc3ccc(N4CCN(C(C)=O)CC4)cc3OC)ncc2C(F)(F)F)c1` ?
OUT: inactive

IN: Record lookup: outcome of this test for `CC(C)(O)CC(=O)NCCn1ccc2ncnc(Nc3ccc(Oc4cccc(C(F)(F)F)c4)c(Cl)c3)c21` ?
OUT: inactive

IN: In this assay, the call recorded for `NC(=O)c1ccc(N(C(N)=O)c2c(F)cccc2F)nc1-c1ccc(F)cc1F` was what?
OUT: inactive

IN: Could you kindly confirm the outcome this assay logged for `Cc1ccc(C(=O)Nc2ccc(Oc3cc4cnn(C)c4cc3-c3cn[nH]c3)c(F)c2)c(=O)n1-c1ccc(F)cc1` ?
OUT: active

IN: Dear all, I need the recorded test outcome for `C=CCn1c(=O)c2cnc(Nc3ccc(N4CCN(C)CC4)cc3)nc2n1-c1cccc(C(C)(C)O)n1` , thank you.
OUT: inactive

IN: Tell me the assay call for `COCCN1CCN(Cc2ccc(-c3n[nH]c4c3C(=O)c3c(NC(=O)NN5CCOCC5)cccc3-4)cc2)CC1` please.
OUT: inactive

----------
Active and inactive are the calls of the source.
Kd tested on ADP/ATP translocase 2 (Homo sapiens): recorded values; note: in the data inactive means no Kd found up to 30 µM
Sequence (P05141 whole entry): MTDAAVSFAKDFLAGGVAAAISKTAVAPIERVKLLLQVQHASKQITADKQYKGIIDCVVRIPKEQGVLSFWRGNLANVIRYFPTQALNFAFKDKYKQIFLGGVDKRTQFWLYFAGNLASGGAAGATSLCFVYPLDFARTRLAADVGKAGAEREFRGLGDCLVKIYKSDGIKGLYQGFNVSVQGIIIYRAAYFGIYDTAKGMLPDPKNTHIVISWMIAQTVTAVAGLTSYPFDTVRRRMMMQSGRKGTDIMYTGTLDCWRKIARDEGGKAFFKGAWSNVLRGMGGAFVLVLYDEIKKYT

The following molecules have reported results that may help.
O[C@H]1CC[C@H](Nc2ncc3nc(Nc4c(F)cc(F)cc4F)n([C@H]4CCOC4)c3n2)CC1 [TANZISERTIB]	> 30 µM (inactive)
O=C(NOC[C@H](O)CO)c1ccc(F)c(F)c1Nc1ccc(I)cc1F [MIRDAMETINIB]	> 30 µM (inactive)

Would you mind giving Kd for every molecule in the list below?
1. CC[C@@](C)(Nc1ccnc(-c2c[nH]c3ncccc23)n1)C(=O)NCC(F)(F)F [DECERNOTINIB]
2. C=CCN(/C=C1/C(=O)O[C@H](COC)[C@@]2(C)C1=C(O)C(=O)C1=C2[C@H](OC(C)=O)C[C@]2(C)C(=O)CC[C@@H]12)CC=C [SONOLISIB]

OUT:
["> 30 µM (inactive)", "> 30 µM (inactive)"]

----------
Data export: Kd values recorded with Bone morphogenetic protein receptor type-1B (Homo sapiens, UniProt O00238).
Sequence (O00238 whole entry): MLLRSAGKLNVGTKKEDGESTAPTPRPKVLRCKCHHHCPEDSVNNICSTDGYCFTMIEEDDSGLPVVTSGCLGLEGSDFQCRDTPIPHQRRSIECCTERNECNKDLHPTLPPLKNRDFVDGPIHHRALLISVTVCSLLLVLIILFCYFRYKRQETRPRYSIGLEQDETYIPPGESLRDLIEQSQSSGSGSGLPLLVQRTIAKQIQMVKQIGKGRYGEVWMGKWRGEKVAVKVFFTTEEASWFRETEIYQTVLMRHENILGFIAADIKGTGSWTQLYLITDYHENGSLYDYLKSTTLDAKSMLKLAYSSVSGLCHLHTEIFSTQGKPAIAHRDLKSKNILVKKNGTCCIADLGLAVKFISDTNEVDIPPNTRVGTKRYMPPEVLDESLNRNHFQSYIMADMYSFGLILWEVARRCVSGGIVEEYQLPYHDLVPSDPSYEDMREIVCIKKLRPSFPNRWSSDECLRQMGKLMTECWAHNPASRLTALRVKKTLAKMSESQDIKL
The source made the active and inactive calls.

Illustrative cases are given below, each with its answer.
O[C@H]1CC[C@H](Nc2ncc3nc(Nc4c(F)cc(F)cc4F)n([C@H]4CCOC4)c3n2)CC1 [TANZISERTIB]	> 30 µM (inactive)
COCCN1CCN(Cc2ccc(-c3n[nH]c4c3C(=O)c3c(NC(=O)NN5CCOCC5)cccc3-4)cc2)CC1 [RGB-286638]	> 30 µM (inactive)
NC(=O)c1ccc(N(C(N)=O)c2c(F)cccc2F)nc1-c1ccc(F)cc1F [VX-702]	> 30 µM (inactive)
O=C(NOC[C@H](O)CO)c1ccc(F)c(F)c1Nc1ccc(I)cc1F [MIRDAMETINIB]	> 30 µM (inactive)
C[C@]1(O)C[C@@H](c2nc(-c3ccc4ccc(-c5ccccc5)nc4c3)c3c(N)nccn32)C1 [LINSITINIB]	> 30 µM (inactive)
CN1CCN(c2nc(C3=C(c4c[nH]c5ccccc45)C(=O)NC3=O)c3ccccc3n2)CC1 [SOTRASTAURIN]	> 30 µM (inactive)

Each compound below has a reported value. Please supply its Kd.
1. O=c1[nH]c([C@@H]2CCCN2)nc2c1oc1ccc(Cl)cc12
2. CC(C)CC(=O)Nc1[nH]nc2c1CN(C(=O)C1CCN(C)CC1)C2(C)C [PHA-793887]
3. CCc1cc2c(cc1N1CCC(N3CCOCC3)CC1)C(C)(C)c1[nH]c3cc(C#N)ccc3c1C2=O [ALECTINIB]
4. C=CC(=O)Nc1cc(Nc2nccc(-c3cn(C)c4ccccc34)n2)c(OC)cc1N(C)CCN(C)C [OSIMERTINIB]
5. COc1ccc(-c2ccc3ncc4c(c3c2)n(-c2ccc(N3CCNCC3)c(C(F)(F)F)c2)c(=O)n4C)cn1 [BGT-226 FREE BASE]

OUT:
["> 30 µM (inactive)", "> 30 µM (inactive)", "> 30 µM (inactive)", "> 30 µM (inactive)", "> 30 µM (inactive)"]

----------
# target system: Breakpoint cluster region protein (Homo sapiens); note: in the data inactive means no Kd found up to 30 µM
# Sequence (P11274 whole entry): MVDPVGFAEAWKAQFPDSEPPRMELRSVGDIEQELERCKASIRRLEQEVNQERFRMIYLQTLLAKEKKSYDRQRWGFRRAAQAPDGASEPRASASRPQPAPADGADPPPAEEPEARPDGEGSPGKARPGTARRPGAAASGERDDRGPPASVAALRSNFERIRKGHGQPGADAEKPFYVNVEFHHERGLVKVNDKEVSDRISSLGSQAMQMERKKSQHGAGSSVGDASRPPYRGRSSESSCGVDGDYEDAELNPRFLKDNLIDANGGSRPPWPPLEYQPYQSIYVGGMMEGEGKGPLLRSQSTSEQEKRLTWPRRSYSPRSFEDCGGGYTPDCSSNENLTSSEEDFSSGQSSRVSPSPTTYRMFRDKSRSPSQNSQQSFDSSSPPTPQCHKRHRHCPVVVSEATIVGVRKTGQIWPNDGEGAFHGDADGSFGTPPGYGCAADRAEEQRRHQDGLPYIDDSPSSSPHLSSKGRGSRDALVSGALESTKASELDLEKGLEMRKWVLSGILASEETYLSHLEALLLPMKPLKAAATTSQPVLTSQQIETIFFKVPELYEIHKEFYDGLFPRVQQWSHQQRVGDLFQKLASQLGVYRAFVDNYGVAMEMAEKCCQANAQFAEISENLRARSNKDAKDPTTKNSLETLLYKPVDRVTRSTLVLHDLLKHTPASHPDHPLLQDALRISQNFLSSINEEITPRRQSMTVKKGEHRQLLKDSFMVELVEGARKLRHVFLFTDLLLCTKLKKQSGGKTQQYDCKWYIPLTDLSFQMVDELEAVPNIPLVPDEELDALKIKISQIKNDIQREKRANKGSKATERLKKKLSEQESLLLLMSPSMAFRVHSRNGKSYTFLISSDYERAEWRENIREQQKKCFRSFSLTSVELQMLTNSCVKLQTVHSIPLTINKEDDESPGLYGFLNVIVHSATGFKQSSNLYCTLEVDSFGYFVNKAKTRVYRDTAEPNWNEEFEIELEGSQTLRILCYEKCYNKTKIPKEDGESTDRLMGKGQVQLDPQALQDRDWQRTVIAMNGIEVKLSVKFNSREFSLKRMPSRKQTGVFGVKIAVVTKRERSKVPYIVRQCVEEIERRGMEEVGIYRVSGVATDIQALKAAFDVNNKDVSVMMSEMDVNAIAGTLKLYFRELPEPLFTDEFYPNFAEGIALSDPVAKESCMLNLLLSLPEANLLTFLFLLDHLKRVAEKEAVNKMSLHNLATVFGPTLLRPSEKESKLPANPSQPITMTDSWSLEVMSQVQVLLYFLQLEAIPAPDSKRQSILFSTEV
The source made the active and inactive calls.
Respond using exactly one of the listed classes: y for active, n for inactive

Use the examples below as a reference point.
COc1cc2c(Oc3ccc4[nH]c(C)cc4c3F)ncnc2cc1OCCCN1CCCC1	y
C=CCN(/C=C1/C(=O)O[C@H](COC)[C@@]2(C)C1=C(O)C(=O)C1=C2[C@H](OC(C)=O)C[C@]2(C)C(=O)CC[C@@H]12)CC=C	n
CC(C)(O)CC(=O)NCCn1ccc2ncnc(Nc3ccc(Oc4cccc(C(F)(F)F)c4)c(Cl)c3)c21	n
O=S(=O)(c1cccc2c(O)nccc12)N1CCCNCC1 [HYDROXYFASUDIL]	n
O=C(NOC[C@H](O)CO)c1ccc(F)c(F)c1Nc1ccc(I)cc1F	n
CCc1cc2c(cc1N1CCC(N3CCOCC3)CC1)C(C)(C)c1[nH]c3cc(C#N)ccc3c1C2=O	n
COc1ccc2c(OCc3nnc4ccc(-c5ccccc5)nn34)ccnc2c1	n
CC1(COc2ccc3c(c2)ncn3-c2ccc3cccc(N4CCC(N)CC4)c3n2)COC1	n
COc1cccc(Nc2ncnn3ccc(CN4CC[C@@H](N)[C@H](O)C4)c23)c1	n
CC(C)CC(=O)Nc1[nH]nc2c1CN(C(=O)C1CCN(C)CC1)C2(C)C	n

IN: Dear colleague, could you share the recorded outcome for `CN1CCN(c2nc(C3=C(c4c[nH]c5ccccc45)C(=O)NC3=O)c3ccccc3n2)CC1` when you have a moment?
OUT: n

IN: Tell me the assay call for `CN(c1ncccc1CNc1nc(Nc2ccc3c(c2)CC(=O)N3)ncc1C(F)(F)F)S(C)(=O)=O` please.
OUT: n

IN: Please indicate how the test categorized `O=c1[nH]c([C@@H]2CCCN2)nc2c1oc1ccc(Cl)cc12` .
OUT: n

IN: Please state the recorded outcome for this compound: `C=CCn1c(=O)c2cnc(Nc3ccc(N4CCN(C)CC4)cc3)nc2n1-c1cccc(C(C)(C)O)n1`
OUT: y

IN: For this compound, state the assay outcome: `Cc1cc(Nc2nc(N[C@@H](C)c3ncc(F)cn3)ncc2Cl)n[nH]1`
OUT: n

IN: Short answer needed: outcome of this test for `O=S(=O)(c1cccc2cnccc12)N1CCCNCC1` ?
OUT: n

IN: // return assay outcome for `CN(C)C/C=C/C(=O)Nc1cc2c(Nc3ccc(F)c(Cl)c3)ncnc2cc1O[C@H]1CCOC1`
OUT: n

----------
# target system: Mitogen-activated protein kinase kinase kinase 3 (Homo sapiens); note: in the data inactive means no Kd found up to 30 µM
# Sequence (Q99759 whole entry): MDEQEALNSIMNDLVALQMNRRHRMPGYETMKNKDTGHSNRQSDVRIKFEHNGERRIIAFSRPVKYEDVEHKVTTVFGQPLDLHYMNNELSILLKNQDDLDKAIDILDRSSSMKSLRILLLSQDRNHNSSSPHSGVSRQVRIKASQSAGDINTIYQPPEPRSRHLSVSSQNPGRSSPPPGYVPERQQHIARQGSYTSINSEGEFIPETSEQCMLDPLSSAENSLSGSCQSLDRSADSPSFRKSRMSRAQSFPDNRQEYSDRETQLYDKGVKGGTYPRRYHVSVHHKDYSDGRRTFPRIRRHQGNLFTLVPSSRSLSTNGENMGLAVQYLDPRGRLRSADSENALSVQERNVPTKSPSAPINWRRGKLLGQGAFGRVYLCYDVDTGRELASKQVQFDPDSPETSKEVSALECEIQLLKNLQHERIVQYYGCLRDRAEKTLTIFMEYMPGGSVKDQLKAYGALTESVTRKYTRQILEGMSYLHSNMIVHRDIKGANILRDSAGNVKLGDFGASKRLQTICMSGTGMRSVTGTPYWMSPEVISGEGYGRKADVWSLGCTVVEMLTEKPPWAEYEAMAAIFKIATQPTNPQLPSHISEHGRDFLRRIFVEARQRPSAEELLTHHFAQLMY
Active and inactive are the calls of the source.
quantity measured: Kd

Below are worked cases with known answers.
COc1ccc(-c2ccc3ncc4c(c3c2)n(-c2ccc(N3CCNCC3)c(C(F)(F)F)c2)c(=O)n4C)cn1 [BGT-226 FREE BASE]	> 30 µM (inactive)
C=CCn1c(=O)c2cnc(Nc3ccc(N4CCN(C)CC4)cc3)nc2n1-c1cccc(C(C)(C)O)n1	> 30 µM (inactive)
C=CC(=O)Nc1cc(Nc2nccc(-c3cn(C)c4ccccc34)n2)c(OC)cc1N(C)CCN(C)C	> 30 µM (inactive)

# batch: return Kd for each of the 3 compounds below
1. CN(c1ncccc1CNc1nc(Nc2ccc3c(c2)CC(=O)N3)ncc1C(F)(F)F)S(C)(=O)=O
2. COc1cccc(Nc2ncnn3ccc(CN4CC[C@@H](N)[C@H](O)C4)c23)c1
3. FC(F)(F)c1ccc(CNc2ccc(Cc3c[nH]c4ncc(Cl)cc34)cn2)cn1

OUT:
> 30 µM (inactive)
0.546 µM (active)
> 30 µM (inactive)
